# Test system: 786-0 renal
# measurement_description: NCI tumour cell line growth inhibition, 48 h
# Lookup of reported TGI keyed by entry
endpoint_label: TGI

compound="COc1ccc2c(c1)C1OCCNC1CC2 (stereo not drawn)" recorded_value="> 100 µM"
compound="CCOC(=O)NC(C(=O)OCC)(N1CCN(c2cc3c(cc2F)c(=O)c(C(=O)O)cn3CC)CC1)C(F)(F)F (stereo not drawn)" recorded_value="> 100 µM"
compound=COc1ccc(N2C(=O)c3c(c4[nH]c5ccc(OC)cc5c4c4ccc(C(C)(C)C)cc34)C2=O)cc1 recorded_value="> 100 µM"
